Recorded measurements of surviving fraction, one per entry
tested on: E34 (patient-derived glioblastoma stem cells of proneural subtype); test: surviving fraction (nuclei count normalised to DMSO); higher = more cells surviving (less toxic); conditions: 111.1 nM; exposure time: 72 h;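 also: nuclei counted by high-content imaging of Hoechst-stained cells in laminin-coated 384-well plates, relative to 0.1% DMSO vehicle wells, with staurosporine as cell-death control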

{"Molecule": "Cc1cccn2c(=O)c(-c3nnn[nH]3)cnc12 [Pemirolast potassium]", "surviving fraction": 0.927}
{"Molecule": "CCCCCCNC(=O)n1cc(F)c(=O)[nH]c1=O [Carmofur]", "surviving fraction": 0.884}
{"Molecule": "Clc1ccc(CSC(Cn2ccnc2)c2ccc(Cl)cc2Cl)cc1 (stereo not drawn) [Sulconazole nitrate]", "surviving fraction": 0.957}
{"Molecule": "CNc1ccc2oc(C[C@H]3O[C@@]4(CC[C@H]3C)O[C@H]([C@H](C)C(=O)c3ccc[nH]3)[C@H](C)C[C@H]4C)nc2c1C(=O)O [Calcimycin]", "surviving fraction": 0.787}
{"Molecule": "CC(=O)[C@]1(O)Cc2c(O)c3c(c(O)c2[C@@H](O[C@H]2C[C@H](N)[C@H](O)[C@H](C)O2)C1)C(=O)c1ccccc1C3=O [Idarubicin]", "surviving fraction": 0.538}
{"Molecule": "CCc1c2c(nc3ccc(OC(=O)N4CCC(N5CCCCC5)CC4)cc13)-c1cc3c(c(=O)n1C2)COC(=O)[C@]3(O)CC [Irinotecan]", "surviving fraction": 0.981}
{"Molecule": "Nc1ccn([C@@H]2O[C@H](CO)[C@@H](O)[C@@H]2O)c(=O)n1 [Cytarabine]", "surviving fraction": 0.687}
{"Molecule": "Cc1ccc(S(=O)(=O)/C=C/C#N)cc1 [Bay 11-7082]", "surviving fraction": 0.881}

---

system: E21 (patient-derived glioblastoma stem cells of mesenchymal subtype); experiment: phenotypic distance (Euclidean, principal components) from DMSO controls (arbitrary units); higher = stronger morphological change; conditions: 111.1 nM; exposure time: 72 h;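 also: cell Painting imaging in 384-well plates, CellProfiler features reduced to at least 20 principal components, Euclidean distance versus same-plate DMSO vehicle wells (0.1% v/v), median over six images per well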
Structures can show the parent of a compound that is named as a salt.
# cutoff 1 applies to phenotypic distance; >= gives t, < gives f

{"Compound": "COC(=O)C1=C(C)NC(C)=C(C(=O)OCC(C)C)C1c1ccccc1[N+](=O)[O-] (stereo not drawn) [Nisoldipine]", "System Under Test": "E21", "Cat": "t"}
{"Compound": "NCCCP(=O)(O)O [3-Aminopropylphosphonic acid]", "System Under Test": "E21", "Cat": "t"}
{"Compound": "NC(=O)c1cccc2cn(-c3ccc([C@@H]4CCCNC4)cc3)nc12 [Niraparib]", "System Under Test": "E21", "Cat": "f"}
{"Compound": "CC(C)NCC(O)c1ccc(O)c(O)c1 (stereo not drawn) [Isoproterenol hydrochloride]", "System Under Test": "E21", "Cat": "f"}
{"Compound": "CC[C@H]1CN2CCc3cc(OC)c(OC)cc3[C@@H]2C[C@@H]1C[C@H]1NCCc2cc(OC)c(OC)cc21 [Emetine dihydrochloride hydrate]", "System Under Test": "E21", "Cat": "t"}
{"Compound": "COC(=O)C[C@](O)(CCCC(C)(C)O)C(=O)O[C@@H]1C(OC)=C[C@]23CCCN2CCc2cc4c(cc2[C@H]13)OCO4 [Homoharringtonine]", "System Under Test": "E21", "Cat": "t"}
{"Compound": "COC(=O)Nc1nc2cc(Sc3ccccc3)ccc2[nH]1 [Fenbendazole]", "System Under Test": "E21", "Cat": "t"}
{"Compound": "Cc1cc(C)c(CN2CCc3c(Cl)cc(-c4c(C)noc4C)c(Cl)c3C2=O)c(=O)[nH]1", "System Under Test": "E21", "Cat": "f"}
{"Compound": "CC[n+]1c(/C=C/C=C2/N(C)c3ccccc3C2(C)C)sc2ccccc21", "System Under Test": "E21", "Cat": "t"}
{"Compound": "Nc1nc(=O)c2nc(CNc3ccc(C(=O)N[C@@H](CCC(=O)O)C(=O)O)cc3)cnc2[nH]1 [Folic acid]", "System Under Test": "E21", "Cat": "f"}
{"Compound": "CCn1cc(-c2ccnc3[nH]c(-c4cccc(CN(C)C)c4)cc23)c(-c2ccc(NC(=O)N(C)C)cc2)n1", "System Under Test": "E21", "Cat": "t"}
{"Compound": "CC[C@@]1(O)C(=O)OCc2c1cc1n(c2=O)Cc2cc3c(CN(C)C)c(O)ccc3nc2-1 [Topotecan]", "System Under Test": "E21", "Cat": "t"}
{"Compound": "C=C(C)[C@H]1Cc2c(ccc3c2O[C@@H]2COc4cc(OC)c(OC)cc4[C@@H]2C3=O)O1 [Rotenone]", "System Under Test": "E21", "Cat": "t"}
{"Compound": "CC(C)C[C@@H](C(=O)N[C@H](C(=O)OC1CCCC1)c1ccccc1)[C@H](O)C(=O)NO [Tosedostat]", "System Under Test": "E21", "Cat": "t"}
{"Compound": "CCC1=C[C@@H]2CN(C1)Cc1c([nH]c3ccccc13)[C@@](C(=O)OC)(c1cc3c(cc1OC)N(C)[C@H]1[C@@](O)(C(=O)OC)[C@H](OC(C)=O)[C@]4(CC)C=CCN5CC[C@]31[C@@H]54)C2 [Vinorelbine Tartrate]", "System Under Test": "E21", "Cat": "t"}
{"Compound": "O=C(/C=C/c1cccnc1)NCCCCC1CCN(C(=O)c2ccccc2)CC1 [Daporinad]", "System Under Test": "E21", "Cat": "t"}
{"Compound": "OC(c1cc(C(F)(F)F)nc2c(C(F)(F)F)cccc12)C1CCCCN1 (stereo not drawn) [Mefloquine hydrochloride]", "System Under Test": "E21", "Cat": "f"}
